Test system: A. baumannii 1650
assay remarks: MIC assay, strain 1650
Type: cell-based, Acinetobacter baumannii
reported conditions: Acinetobacter baumannii; strain 1650; Tables 1, 3, 4, 5 and footnotes; read-out: 1650 MIC
readout name: MIC

smiles repr	assay target	result
CCc1ccc2nc(NCc3ccccc3)nc(NC)c2c1	A. baumannii 1650	30 µM
CNc1nc(NCCc2ccccc2)nc2ccc(OC)cc12	A. baumannii 1650	> 50 µM
CNc1nc(NCc2ccccc2)nc2ccc(OC)cc12	A. baumannii 1650	50 µM
CNc1nc(NCc2ccccc2)nc2ccc(C(C)C)cc12	A. baumannii 1650	> 50 µM
CNc1nc(NCc2ccccc2)nc2ccc(C3=CCCC3)cc12	A. baumannii 1650	> 50 µM
CNc1nc(NCc2ccccc2)c2cc(OC)ccc2n1	A. baumannii 1650	> 50 µM
CNc1nc(NCCc2ccccc2)nc2ccc(C)cc12	A. baumannii 1650	> 50 µM
CNc1nc(NCc2ccccc2)c2ccc(Br)cc2n1	A. baumannii 1650	> 50 µM
CNc1nc(NCCc2ccccc2)nc2ccccc12	A. baumannii 1650	> 50 µM
CNc1nc(NCc2ccccc2)nc2cc(Cl)ccc12	A. baumannii 1650	> 50 µM

---

Measured MIC accompanies every entry in the list below.
System: A. baumannii 1403
assay remarks: MIC assay, strain 1403
Type: cell-based, Acinetobacter baumannii
reported conditions: Acinetobacter baumannii; strain 1403; Table 2; read-out: 1403 MIC
Procedure: MIC and MBC assays were performed in this study as documented by us previously.^17,23,24,25 The A. baumannii strains used are detailed in Table 7.
readout name: MIC (µM)

compound	assay target	readout name	readout qualifier	recorded number
CNc1nc(NCc2ccccc2)nc2cc(C)ccc12 [Compound 7]	A. baumannii 1403	MIC	=	50
CNc1nc(NCc2ccccc2)nc2ccc(Br)cc12 [Compound 4]	A. baumannii 1403	MIC	=	50
CNc1nc(NCc2ccccc2)nc2cc(Br)ccc12 [Compound 6]	A. baumannii 1403	MIC	>	50
CNc1nc(NCc2ccccc2)nc2ccccc12 [Compound 8]	A. baumannii 1403	MIC	>	50

---

Measured MBEC90 1651 accompanies every entry in the list below.
System: A. baumannii 1651 biofilm
assay remarks: biofilm eradication determination assay, strain 1651
Format: cell-based, Acinetobacter baumannii
reported conditions: 90% biofilm eradication, Table 8
readout name: MBEC90 1651 (µM)

smiles repr	recorded number
CCC/C=C/c1ccc2nc(NCc3ccccc3)nc(NC)c2c1	24
CNc1nc(NCc2ccccc2)nc2ccc(C3=CCCCC3)cc12	21
CNc1nc(NCc2ccccc2)nc2ccc(Br)cc12	37.34
CNc1nc(NCc2ccccc2)nc2ccc(C)cc12	11
CNc1nc(NCc2ccccc2)nc2ccc(C3CCCCC3)cc12	33
CCCCCc1ccc2nc(NCc3ccccc3)nc(NC)c2c1	18

---

System: A. baumannii 1646
assay remarks: minimal bactericidal concentration (MBC) assay, strain 1646
Assay type: cell-based, Acinetobacter baumannii
reported conditions: Acinetobacter baumannii, 1646, strain 1646; Table 8 and text; read-out: MBC90 1646

smiles repr	MBC (µM)
CNc1nc(NCc2ccccc2)nc2ccc(Br)cc12	0.81
CNc1nc(NCc2ccccc2)nc2ccc(C3CCCCC3)cc12	1.1
CNc1nc(NCc2ccccc2)nc2ccc(C)cc12	0.77
CNc1nc(NCc2ccccc2)nc2ccc(C3=CCCCC3)cc12	1.5
CCCCCc1ccc2nc(NCc3ccccc3)nc(NC)c2c1	1.1
CCC/C=C/c1ccc2nc(NCc3ccccc3)nc(NC)c2c1	1.8

---

System: A. baumannii 1651
assay remarks: MIC assay, strain 1651
Assay type: cell-based, Acinetobacter baumannii
reported conditions: Acinetobacter baumannii; strain 1651; lead quinazolines, Table 8; read-out: MIC 1651
Measured MIC accompanies every entry in the list below.
readout name: MIC

smiles repr	readout name	result
CCCCCc1ccc2nc(NCc3ccccc3)nc(NC)c2c1	MIC	10 µM
CNc1nc(NCc2ccccc2)nc2ccc(C)cc12	MIC	1 µM
CCC/C=C/c1ccc2nc(NCc3ccccc3)nc(NC)c2c1	MIC	2 µM
CNc1nc(NCc2ccccc2)nc2ccc(C3=CCCCC3)cc12	MIC	2 µM
CNc1nc(NCc2ccccc2)nc2ccc(Br)cc12	MIC	5 µM
CNc1nc(NCc2ccccc2)nc2ccc(C3CCCCC3)cc12	MIC	20 µM

---

Test system: human HepG2 cells
Format: cell-based
reported conditions: at 25 μM (highest concentration tested)

smiles repr	HepG2 cell viability / %
CNc1nc(NCc2ccccc2)nc2ccc(C)cc12	44
CCCCCc1ccc2nc(NCc3ccccc3)nc(NC)c2c1	31
CNc1nc(NCc2ccccc2)nc2ccc(Br)cc12	43
CNc1nc(NCc2ccccc2)nc2ccc(C3CCCCC3)cc12	39
CCC/C=C/c1ccc2nc(NCc3ccccc3)nc(NC)c2c1	41
CNc1nc(NCc2ccccc2)nc2ccc(C3=CCCCC3)cc12	32

---

Measured MIC accompanies every entry in the list below.
System: A. baumannii 1650
assay remarks: MIC assay, strain 1650
Format: cell-based, Acinetobacter baumannii
reported conditions: Acinetobacter baumannii; strain 1650; Tables 1, 3, 4, 5 and footnotes; read-out: 1650 MIC

compound	assay target	readout qualifier	MIC, µM
C=Cc1ccc2nc(NCc3ccccc3)nc(NC)c2c1 [Compound 22]	A. baumannii 1650	=	20
CCC/C=C/c1ccc2nc(NCc3ccccc3)nc(NC)c2c1 [Compound 26]	A. baumannii 1650	=	25
CNc1nc(NCc2ccccc2)nc2ccc(C3=CCCCC3)cc12 [Compound 29]	A. baumannii 1650	=	10
CNc1nc(NCc2ccccc2)c2cc(Br)ccc2n1 [Compound 10]	A. baumannii 1650	>	50
CNc1nc(NCCc2ccccc2)nc2ccc(Cl)cc12 [Compound 17]	A. baumannii 1650	>	50
CNc1nc(NCc2ccccc2)nc2ccc(C3CCCCC3)cc12 [Compound 30]	A. baumannii 1650	=	2
CNc1nc(NCc2ccccc2)c2ccc(Cl)cc2n1 [Compound 13]	A. baumannii 1650	>	50
COc1cc(Cc2cnc(N)nc2N)cc(OC)c1OC [TMP, trimethoprim, reference compound]	A. baumannii 1650	=	120
CNc1nc(NCCc2ccccc2)nc2ccc(Br)cc12 [Compound 19]	A. baumannii 1650	>	50
Cc1cc(NS(=O)(=O)c2ccc(N)cc2)no1 [SMX, Sulfamethoxazole, reference compound]	A. baumannii 1650	=	118
C=C(C)c1ccc2nc(NCc3ccccc3)nc(NC)c2c1 [Compound 24]	A. baumannii 1650	>	50
CNc1nc(NCc2ccccc2)c2ccc(C)cc2n1 [Compound 15]	A. baumannii 1650	>	50
CNc1nc(NCc2ccccc2)c2cc(Cl)ccc2n1 [Compound 9]	A. baumannii 1650	=	50
CNc1nc(NCc2ccccc2)c2cc(C)ccc2n1 [Compound 11]	A. baumannii 1650	>	50
CNc1nc(NCc2ccccc2)nc2ccc(Cl)cc12 [Compound 1]	A. baumannii 1650	=	15
CCCCCc1ccc2nc(NCc3ccccc3)nc(NC)c2c1 [Compound 27]	A. baumannii 1650	=	2
